System: c-Src
Experiment: phosphorylation enrichment, bacterial display (enrichment ratio); higher = better substrate or ligand; peptides without Tyr show the background
The threshold is inclusive: phosphorylation enrichment of exactly 0.6 counts as criterion met; values below receive criterion not met.

INSERT INTO measurements (seq, answer_label) VALUES
  ('RRKRAYVEIEF [MAK16_Y282_Q277R_YF]', 'criterion not met');

Here is the next item to consider.
*Q* Textbook exercise: given the entry CTTIHYNYMRN [TP53_Y234_C238R] , state whether its phosphorylation enrichment is greater than or equal to 0.6.
*A* criterion not met

---

Target: c-Src SH2
Test: SH2 binding enrichment of the phosphorylated peptide, bacterial display (enrichment ratio); higher = better substrate or ligand; peptides without Tyr show the background
The threshold is inclusive: SH2 binding enrichment of exactly 0.8 counts as Met; values below receive Not met.

Completed entries (count: 10):
INSERT INTO measurements (seq, tgt, answer_label) VALUES
  ('KRAIGYYSATS [FAM120A_Y327]', 'c-Src SH2', 'Met'),
  ('FDNPVYQKTTE [LDLR_Y828]', 'c-Src SH2', 'Not met'),
  ('GGRKGYGGFSR [RECQL5_Y478_D480G]', 'c-Src SH2', 'Not met'),
  ('DVLEFCNSKKT [PAK1_Y131_Y131C]', 'c-Src SH2', 'Not met'),
  ('PSSRDYKDNIK [PIGN_Y227_H229D]', 'c-Src SH2', 'Not met'),
  ('DRTVHYVDEKG [IFT140_Y216_G212R]', 'c-Src SH2', 'Not met'),
  ('VTPVMYTYDEY [COL10A1_Y623_G618V]', 'c-Src SH2', 'Met'),
  ('LIFTNYEVGKD [GSTP1_Y112_A114V_YF]', 'c-Src SH2', 'Not met'),
  ('KDGIGYISAAE [CALM2_Y100_N98I]', 'c-Src SH2', 'Not met'),
  ('ENRKFYMDLKE [PURA_Y156_YF]', 'c-Src SH2', 'Not met');

*Q* Textbook exercise: given the entry KKGIVYVFNGR [ITGAV_Y404_I405V] , state whether its SH2 binding enrichment is greater than or equal to 0.8.
*A* Met

*Q* Ok, now SAPPSYEETVA [LITAF_Y23]
*A* Met

*Q* Ok, now DYYDLYGGEKF [PTPN11_Y66]
*A* Not met

---

Biological target: Grb2 SH2 (UniProt P62993)
Sequence (P62993 whole entry, looked up): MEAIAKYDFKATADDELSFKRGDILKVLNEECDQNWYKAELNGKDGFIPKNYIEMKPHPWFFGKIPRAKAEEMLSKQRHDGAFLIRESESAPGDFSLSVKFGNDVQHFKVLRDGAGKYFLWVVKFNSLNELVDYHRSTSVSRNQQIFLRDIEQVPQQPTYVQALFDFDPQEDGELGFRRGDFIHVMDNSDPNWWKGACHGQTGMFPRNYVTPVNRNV
Assay: SH2 binding enrichment of the phosphorylated peptide, bacterial display (enrichment ratio); higher = better substrate or ligand; peptides without Tyr show the background
The threshold is inclusive: SH2 binding enrichment of exactly 0.8 counts as 1; values below receive 0.

INSERT INTO measurements (seq, answer_label) VALUES
  ('KNKKDYFDMFE [SLC26A3_Y526_YF]', 1);

*Q* Textbook exercise: given the entry TDRNLYSKNLV [CFAP58_Y501_S496T] , state whether its SH2 binding enrichment is greater than or equal to 0.8.
*A* 0

*Q* Ok, now IRDLKYTIENP [SND1_Y178]
*A* 0

*Q* Ok, now ALVDTYCRHNF [HLA-DRB1_Y107_A103L_YF]
*A* 1

*Q* Ok, now PKGWNYELPAT [PROM1_Y34_A31G]
*A* 1

*Q* Ok, now NTGNFYDLFGG [PTPN11_Y63_D61N_YF]
*A* 1

*Q* Ok, now DQNVEYKGTVW [FHL1_Y117]
*A* 1
